# Tested target: T1, LbuC2c2-dHEPN1/dHEPN2 (Leptotrichia buccalis, UniProt C7NBY4 1-1159, R472A;H477A;R1048A;H1053A)
# T1 sequence: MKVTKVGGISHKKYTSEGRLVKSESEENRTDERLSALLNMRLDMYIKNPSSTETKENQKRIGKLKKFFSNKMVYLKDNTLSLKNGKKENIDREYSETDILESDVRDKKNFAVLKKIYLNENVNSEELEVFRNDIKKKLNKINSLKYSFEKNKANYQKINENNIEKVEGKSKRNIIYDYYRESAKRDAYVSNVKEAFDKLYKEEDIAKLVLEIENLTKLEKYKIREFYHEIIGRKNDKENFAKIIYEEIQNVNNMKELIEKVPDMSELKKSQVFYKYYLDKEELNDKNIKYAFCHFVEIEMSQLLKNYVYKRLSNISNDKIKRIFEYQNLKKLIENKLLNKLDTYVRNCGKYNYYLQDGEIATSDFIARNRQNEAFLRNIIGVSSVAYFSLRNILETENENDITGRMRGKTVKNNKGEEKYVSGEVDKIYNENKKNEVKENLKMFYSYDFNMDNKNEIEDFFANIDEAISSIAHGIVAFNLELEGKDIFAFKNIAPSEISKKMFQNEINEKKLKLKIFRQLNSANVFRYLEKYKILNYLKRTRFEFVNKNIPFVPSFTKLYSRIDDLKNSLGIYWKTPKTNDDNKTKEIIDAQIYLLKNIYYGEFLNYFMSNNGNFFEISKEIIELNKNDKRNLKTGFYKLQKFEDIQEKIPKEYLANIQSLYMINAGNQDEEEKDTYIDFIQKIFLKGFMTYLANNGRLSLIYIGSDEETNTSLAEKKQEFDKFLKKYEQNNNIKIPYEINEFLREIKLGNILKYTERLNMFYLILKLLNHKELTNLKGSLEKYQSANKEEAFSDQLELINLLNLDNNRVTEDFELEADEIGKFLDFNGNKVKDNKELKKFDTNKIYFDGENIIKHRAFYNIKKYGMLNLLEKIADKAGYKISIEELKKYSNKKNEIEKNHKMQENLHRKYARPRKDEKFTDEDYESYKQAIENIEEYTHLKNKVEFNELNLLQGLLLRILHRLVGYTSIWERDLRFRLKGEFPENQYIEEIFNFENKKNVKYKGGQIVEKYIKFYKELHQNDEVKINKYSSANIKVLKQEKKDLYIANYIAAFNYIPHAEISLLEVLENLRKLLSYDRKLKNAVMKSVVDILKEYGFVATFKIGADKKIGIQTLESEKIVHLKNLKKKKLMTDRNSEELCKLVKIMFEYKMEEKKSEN
# Method description: filter binding
Reported property: Kd (nM)
The response must be a number in nM with no trailing unit.

Input line: Requested read-out: Kd. Entry: mature crRNA-A_GG (crLbu_A_GG_AES432) (structured_RNA) RNA: GGCCACCCCAAAAAUGAAGGGGACUAAAACAGGGGCAGAGAUGAUGACCCU
Output line: 43.3

Cited source for all entries: paper PMC5576363
